- Tested on: Nucleic Acid
- protocol: Binding affinity to 2-amino purine labelled SAM2 riboswitch aptamer assessed as change in fluorescence at 5 mM to 10 mM at pH 8.3 by fluorescence binding assay
- Assay type: nucleic-acid assay
The source made the active and inactive calls. The calls are words filed in the database; no cut-off is given here.
Reply using exactly one outcome from label 1 (active), label 0 (inactive)

Input: Record request — test call for C[S+](CC[C@H](NC(=O)CNCCN)C(=O)O)C[C@H]1O[C@@H](n2cnc3c(N)ncnc32)[C@H](O)[C@@H]1O (stereo partly specified)
Output: label 0

Input: Can you look up the reported call for CN1/C(=C\c2cc[n+](CCCC(=O)N[C@@H](CC[S+](C)C[C@H]3O[C@@H](n4cnc5c(N)ncnc54)[C@H](O)[C@@H]3O)C(=O)O)c3ccccc23)Sc2ccccc21 (stereo partly specified) for me?
Output: label 1

Input: Which outcome was assigned to C[S+](CC[C@H](NC(=O)CN)C(=O)O)C[C@H]1O[C@@H](n2cnc3c(N)ncnc32)[C@H](O)[C@@H]1O (stereo partly specified) in this test?
Output: label 0

Input: Dear colleague, could you share the recorded outcome for Nc1ncnc2c1ncn2[C@@H]1O[C@H](CSCC[C@H](N)C(=O)O)[C@@H](O)[C@H]1O when you have a moment?
Output: label 0

Input: Given C[S+](CC[C@H](NC(=O)CCN)C(=O)O)C[C@H]1O[C@@H](n2cnc3c(N)ncnc32)[C@H](O)[C@@H]1O (stereo partly specified) , state the outcome it received in this test.
Output: label 0

Input: Called result for C[S+](CC[C@H](N)C(=O)[O-])C[C@H]1O[C@@H](n2cnc3c(N)ncnc32)[C@H](O)[C@@H]1O (stereo partly specified)
Output: label 1
